system: RARa homodimer (NR concentration 270 nM); assay: PBM binding z-score (relative to random genomic background probes); higher = stronger binding; sequences stand for … in GC…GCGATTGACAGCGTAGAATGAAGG
readout: PBM binding z-score

These solved cases illustrate the format of a correct answer.
seq_text=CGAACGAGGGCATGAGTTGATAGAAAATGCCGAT val=0.132
seq_text=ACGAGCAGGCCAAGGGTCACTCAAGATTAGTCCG val=0.319
seq_text=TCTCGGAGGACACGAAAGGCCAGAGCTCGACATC val=-0.569
seq_text=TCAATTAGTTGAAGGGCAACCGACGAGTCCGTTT val=-0.199
seq_text=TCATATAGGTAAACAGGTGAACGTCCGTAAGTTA val=1.29

// moving on: another record for PBM binding z-score
What the record says about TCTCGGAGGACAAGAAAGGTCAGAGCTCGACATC : PBM binding z-score is 0.689

---

# reported PBM binding z-score; entries follow
tested on: PPARg:RXRa IVT, anti-PPARg (NR concentration 270 nM, RXRa partner concentration 90 nM); assay: PBM binding z-score (relative to random genomic background probes); higher = stronger binding; sequences stand for … in GC…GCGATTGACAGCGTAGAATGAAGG

seq_text=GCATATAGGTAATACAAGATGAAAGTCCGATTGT system_under_test="PPARg:RXRa IVT, anti-PPARg (NR concentration 270 nM, RXRa partner concentration 90 nM)" readout="PBM binding z-score" val=2.21
seq_text=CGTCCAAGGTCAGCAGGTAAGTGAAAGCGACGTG system_under_test="PPARg:RXRa IVT, anti-PPARg (NR concentration 270 nM, RXRa partner concentration 90 nM)" readout="PBM binding z-score" val=2.83

What the record says about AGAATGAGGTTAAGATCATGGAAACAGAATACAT : PBM binding z-score is 2.7

What the record says about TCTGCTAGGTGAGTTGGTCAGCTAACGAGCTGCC : PBM binding z-score is 1.52

What the record says about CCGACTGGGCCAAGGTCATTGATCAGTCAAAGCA : PBM binding z-score is 2.75

What the record says about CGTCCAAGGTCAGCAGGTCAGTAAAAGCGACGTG : PBM binding z-score is 3.62

What the record says about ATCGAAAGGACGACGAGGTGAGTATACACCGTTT : PBM binding z-score is 0.315

What the record says about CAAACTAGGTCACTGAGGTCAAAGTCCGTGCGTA : PBM binding z-score is 8.65

What the record says about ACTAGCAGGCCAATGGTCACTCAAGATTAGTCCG : PBM binding z-score is 0.714

What the record says about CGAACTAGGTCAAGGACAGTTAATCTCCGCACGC : PBM binding z-score is 8.35

What the record says about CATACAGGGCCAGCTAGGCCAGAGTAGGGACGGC : PBM binding z-score is -0.0426

What the record says about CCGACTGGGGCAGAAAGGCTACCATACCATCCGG : PBM binding z-score is 0.918

---

tested on: VDR homodimer (NR concentration 270 nM); experiment: PBM binding z-score (relative to random genomic background probes); higher = stronger binding; sequences stand for … in GC…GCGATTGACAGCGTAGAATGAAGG
Decision: PBM binding z-score compared against 1; not below it gives Satisfied, below it gives Not satisfied.

seq_text=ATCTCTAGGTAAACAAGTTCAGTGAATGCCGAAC assigned_label=Satisfied
seq_text=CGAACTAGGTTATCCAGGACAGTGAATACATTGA assigned_label="Not satisfied"
seq_text=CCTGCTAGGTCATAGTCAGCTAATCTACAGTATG assigned_label="Not satisfied"

INPUT: Hi, just wondering whether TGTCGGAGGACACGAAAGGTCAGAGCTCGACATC shows PBM binding z-score of 1 or higher.
OUTPUT: Satisfied

INPUT: Hi, just wondering whether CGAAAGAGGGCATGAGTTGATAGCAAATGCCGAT shows PBM binding z-score of 1 or higher.
OUTPUT: Satisfied

INPUT: Hi, just wondering whether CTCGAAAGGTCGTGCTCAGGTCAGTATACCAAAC shows PBM binding z-score of 1 or higher.
OUTPUT: Satisfied

INPUT: Hi, just wondering whether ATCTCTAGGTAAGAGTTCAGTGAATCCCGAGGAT shows PBM binding z-score of 1 or higher.
OUTPUT: Satisfied

INPUT: Hi, just wondering whether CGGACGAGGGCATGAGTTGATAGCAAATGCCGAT shows PBM binding z-score of 1 or higher.
OUTPUT: Satisfied

INPUT: Hi, just wondering whether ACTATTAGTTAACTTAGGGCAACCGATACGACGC shows PBM binding z-score of 1 or higher.
OUTPUT: Not satisfied

INPUT: Hi, just wondering whether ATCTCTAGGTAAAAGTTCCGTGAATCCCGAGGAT shows PBM binding z-score of 1 or higher.
OUTPUT: Not satisfied

INPUT: Hi, just wondering whether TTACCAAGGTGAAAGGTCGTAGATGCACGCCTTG shows PBM binding z-score of 1 or higher.
OUTPUT: Not satisfied

INPUT: Hi, just wondering whether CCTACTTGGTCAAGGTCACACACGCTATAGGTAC shows PBM binding z-score of 1 or higher.
OUTPUT: Satisfied

INPUT: Hi, just wondering whether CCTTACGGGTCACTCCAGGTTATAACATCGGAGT shows PBM binding z-score of 1 or higher.
OUTPUT: Satisfied

INPUT: Hi, just wondering whether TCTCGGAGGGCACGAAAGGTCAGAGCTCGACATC shows PBM binding z-score of 1 or higher.
OUTPUT: Satisfied

INPUT: Hi, just wondering whether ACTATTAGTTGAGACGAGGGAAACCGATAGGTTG shows PBM binding z-score of 1 or higher.
OUTPUT: Not satisfied

INPUT: Hi, just wondering whether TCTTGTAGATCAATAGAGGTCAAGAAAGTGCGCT shows PBM binding z-score of 1 or higher.
OUTPUT: Satisfied

INPUT: Hi, just wondering whether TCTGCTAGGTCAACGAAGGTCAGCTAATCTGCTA shows PBM binding z-score of 1 or higher.
OUTPUT: Satisfied

INPUT: Hi, just wondering whether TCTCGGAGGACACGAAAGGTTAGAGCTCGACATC shows PBM binding z-score of 1 or higher.
OUTPUT: Not satisfied

INPUT: Hi, just wondering whether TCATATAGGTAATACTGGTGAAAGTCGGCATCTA shows PBM binding z-score of 1 or higher.
OUTPUT: Not satisfied

INPUT: Hi, just wondering whether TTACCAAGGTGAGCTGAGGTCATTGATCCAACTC shows PBM binding z-score of 1 or higher.
OUTPUT: Satisfied

---

tested on: THRa:RXRa (NR concentration 90 nM, RXRa partner concentration 90 nM); assay: PBM binding z-score (relative to random genomic background probes); higher = stronger binding; sequences stand for … in GC…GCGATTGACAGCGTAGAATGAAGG
Decision: PBM binding z-score compared against 3; not below it gives rule met, below it gives rule not met.

Look over these answered cases.
seq_text=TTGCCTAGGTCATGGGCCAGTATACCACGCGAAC assigned_label="rule met"
seq_text=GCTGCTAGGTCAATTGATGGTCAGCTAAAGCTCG assigned_label="rule not met"
seq_text=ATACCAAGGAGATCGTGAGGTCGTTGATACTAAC assigned_label="rule not met"

INPUT: Hi, just wondering whether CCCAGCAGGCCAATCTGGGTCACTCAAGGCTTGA shows PBM binding z-score of 3 or higher.
OUTPUT: rule met

INPUT: Hi, just wondering whether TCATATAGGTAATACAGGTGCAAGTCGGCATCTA shows PBM binding z-score of 3 or higher.
OUTPUT: rule not met

INPUT: Hi, just wondering whether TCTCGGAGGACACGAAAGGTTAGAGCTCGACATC shows PBM binding z-score of 3 or higher.
OUTPUT: rule not met

---

tested on: FXR:RXRa (NR concentration 270 nM, RXRa partner concentration 90 nM); experiment: PBM binding z-score (relative to random genomic background probes); higher = stronger binding; sequences stand for … in GC…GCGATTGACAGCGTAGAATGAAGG
Decision: PBM binding z-score compared against 1; not below it gives fulfilled, below it gives not fulfilled.

Look over these answered cases.
seq_text=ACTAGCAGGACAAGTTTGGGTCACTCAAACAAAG assigned_label="not fulfilled"
seq_text=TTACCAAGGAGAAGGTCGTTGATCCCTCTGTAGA assigned_label=fulfilled
seq_text=ATATGTAGGTTTCATCCGGGTCATTCAGGCTATG assigned_label=fulfilled
seq_text=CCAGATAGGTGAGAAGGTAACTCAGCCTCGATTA assigned_label="not fulfilled"
seq_text=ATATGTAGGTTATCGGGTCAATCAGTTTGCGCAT assigned_label=fulfilled
seq_text=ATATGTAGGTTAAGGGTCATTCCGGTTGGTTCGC assigned_label=fulfilled
seq_text=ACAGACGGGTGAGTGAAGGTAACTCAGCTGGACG assigned_label="not fulfilled"
seq_text=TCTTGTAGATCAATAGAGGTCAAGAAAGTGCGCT assigned_label=fulfilled

INPUT: Hi, just wondering whether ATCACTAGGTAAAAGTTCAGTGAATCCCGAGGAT shows PBM binding z-score of 1 or higher.
OUTPUT: not fulfilled
